STUDY TARGET: human ether-à-go-go-related gene (hERG) potassium channel (human)
TEST METHOD NOTES: primary screen, population patch clamp on CHO cells stably expressing hERG; higher = less effect of the substance
Protocol: Briefly, Chinese hamster ovary (CHO) cells stably expressing the hERG channel were dislodged from tissue culture flasks and dispensed into PPC plates. […] During the recording, background leak currents were estimated by a 100 ms step to -80 mV from an initial holding potential of -70 mV and subtracted from the subsequent current measurement. The campaign was conducted in two phases using slight differences in recording protocol. […]
In all, about 310,000 compounds went through this assay and about 14,000 (4.5%) showed an effect of 50% or more. Effects have a minus sign here. What follows is part of a selection rich in strong results, with near analogues and random picks from the rest.
Hi there, I'd appreciate the recorded hERG current change (%, negative = inhibition) at 10uM for every entry that follows.
Answers are plain numbers, in %.

Use the examples below as a reference point.
COMPOUND	MEASURED NUMBER
Cc1c(CN2CCN(CC(C)(C)C)C(CCO)C2)[nH]c2ccccc12 (stereo not drawn)	12.2
O=c1[nH]c2cc3c(cc2cc1CN(Cc1cccnc1)C(=S)NCc1ccco1)OCO3	-52.5
COC(=O)C1=C(c2cccc(C#N)c2)C[C@@H]2CC[C@H]1N2C(=O)N1CCOCC1	6.41
CCOc1ccccc1CN1CCN(Cc2[nH]c3ccccc3c2C)CC1CCO (stereo not drawn)	-62.3
Cc1ccc(C)c2[nH]c(=O)c(CN(Cc3cccnc3)C(=S)NCc3ccco3)cc12	-61.1
CCOc1ccc(CN2CCN(Cc3[nH]c4ccccc4c3C)CC2CCO)cc1 (stereo not drawn)	-75.8
Cc1ccc(C)c2[nH]c(=O)c(CN(Cc3cccs3)C(=S)NCc3ccco3)cc12	-33
CCOc1ccc(CN2CCN(Cc3[nH]c4ccc(OC)cc4c3C)CC2CCO)cc1 (stereo not drawn)	-77.9

Note: attention shifts to another entry.
Input: # value lookup — system human ether-à-go-go-related gene (hERG) potassium channel (human), readout hERG current change (%, negative = inhibition) at 10uM, item Cn1cnnc1SC(C(=O)Nc1cc(Cl)cc(Cl)c1)c1ccccc1 (stereo not drawn)
Output: 20.9

###

STUDY TARGET: human ether-à-go-go-related gene (hERG) potassium channel (human, UniProt Q12809)
Sequence (Q12809 whole entry, looked up): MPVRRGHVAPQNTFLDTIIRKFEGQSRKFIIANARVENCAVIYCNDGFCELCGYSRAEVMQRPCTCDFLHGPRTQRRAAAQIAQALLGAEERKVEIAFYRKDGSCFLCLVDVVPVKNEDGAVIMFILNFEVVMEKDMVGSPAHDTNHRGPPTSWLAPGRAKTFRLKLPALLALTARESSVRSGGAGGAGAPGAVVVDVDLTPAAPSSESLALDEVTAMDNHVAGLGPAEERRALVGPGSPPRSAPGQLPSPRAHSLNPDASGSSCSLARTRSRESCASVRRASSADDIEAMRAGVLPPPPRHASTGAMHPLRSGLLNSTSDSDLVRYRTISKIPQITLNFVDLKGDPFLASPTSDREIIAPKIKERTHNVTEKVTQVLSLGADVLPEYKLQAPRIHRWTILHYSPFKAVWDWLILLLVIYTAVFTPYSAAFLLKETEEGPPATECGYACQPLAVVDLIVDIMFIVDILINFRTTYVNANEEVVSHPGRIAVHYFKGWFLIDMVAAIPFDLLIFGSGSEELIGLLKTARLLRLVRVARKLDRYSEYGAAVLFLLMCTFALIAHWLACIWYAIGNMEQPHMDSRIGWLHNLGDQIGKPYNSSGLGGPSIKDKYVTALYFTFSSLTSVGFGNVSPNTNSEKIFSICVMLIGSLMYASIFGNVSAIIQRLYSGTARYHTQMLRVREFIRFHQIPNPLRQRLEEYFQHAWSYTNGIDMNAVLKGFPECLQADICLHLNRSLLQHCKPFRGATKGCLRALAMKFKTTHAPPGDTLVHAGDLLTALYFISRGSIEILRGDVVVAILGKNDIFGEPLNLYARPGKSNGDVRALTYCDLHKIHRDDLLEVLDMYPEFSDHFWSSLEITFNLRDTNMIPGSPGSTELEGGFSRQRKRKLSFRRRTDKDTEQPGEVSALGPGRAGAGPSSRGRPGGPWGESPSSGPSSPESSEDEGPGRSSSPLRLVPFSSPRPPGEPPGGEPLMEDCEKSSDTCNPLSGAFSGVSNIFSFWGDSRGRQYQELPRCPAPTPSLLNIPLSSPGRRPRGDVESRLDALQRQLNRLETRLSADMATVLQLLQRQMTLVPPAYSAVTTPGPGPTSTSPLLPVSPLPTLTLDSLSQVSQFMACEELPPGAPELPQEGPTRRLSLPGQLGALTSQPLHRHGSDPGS
TEST METHOD NOTES: primary screen, population patch clamp on CHO cells stably expressing hERG; higher = less effect of the substance
About 14,000 (4.5%) of roughly 310,000 compounds showed an effect of 50% or more. The effect is printed as a negative number. Many of the other results were omitted from the sample, so strong results are more common in it than they were.
VALUE TYPE: hERG current change (%, negative = inhibition) at 10uM (%)
One number for each entry, in %.

COMPOUND	STUDY TARGET	MEASURED NUMBER
O=C(NC1CCCN(C2Cc3ccccc3C2)C1)c1ccc(F)cc1Cl (centres unmarked)	human ether-à-go-go-related gene (hERG) potassium channel (human, UniProt Q12809)	-71.1
CCOc1ccc(NC(=O)CCN2CCN(S(=O)(=O)c3ccc(F)cc3)CC2)cc1	human ether-à-go-go-related gene (hERG) potassium channel (human, UniProt Q12809)	-16.5
CN(C)CCn1c2c(c(SCC(=O)Nc3cccc(C(F)(F)F)c3)nc1=O)CCCC2	human ether-à-go-go-related gene (hERG) potassium channel (human, UniProt Q12809)	-68.8

Give hERG current change (%, negative = inhibition) at 10uM for each listed item.
1. CC#CC(=O)NC1CCCN(C2Cc3ccccc3C2)C1 (centres unmarked)
2. CCOC(=O)COc1ccc(S(=O)(=O)N2CCN(c3ccc(F)cc3)CC2)cc1

Output:
1. -18.7
2. -60

Give hERG current change (%, negative = inhibition) at 10uM for each listed item.
1. CCOc1ccc(C(=O)CN2CCN(S(=O)(=O)c3ccc(F)cc3)CC2)cc1
2. COc1cccc(C(=O)NC2CCCN(C3Cc4ccccc4C3)C2)c1OC (centres unmarked)
3. Cc1cc2oc(=O)c(CC(=O)NCCCO)c(C)c2c2occ(C(C)(C)C)c12
4. CCOC(=O)COc1ccc(S(=O)(=O)N2CCN(c3ccccc3)CC2)cc1
5. CN(C)CCn1c2c(c(SCC(=O)Nc3ccc4c(c3)OCCO4)nc1=O)CCCC2
6. CCCCn1c(O)c(N=NC(=O)c2ccccc2NS(=O)(=O)c2cccs2)c2ccccc21

Output:
[-63, -41.7, -9.35, -39, -14.8, -2.54]

###

STUDY TARGET: human ether-à-go-go-related gene (hERG) potassium channel (human, UniProt Q12809);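 also: peak tail current of the secondary pulse compared with the same well before compound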
TEST METHOD NOTES: primary screen, population patch clamp on CHO cells stably expressing hERG; higher = less effect of the substance
Out of some 310,000 compounds screened, about 14,000 (4.5%) showed an effect of 50% or more. The effect is printed as a negative number. The sample as a whole holds a higher share of strong results than the screen did.
Hi there, I'd appreciate the recorded hERG current change (%, negative = inhibition) at 10uM for every entry that follows.
Numbers only, in %.

Use the examples below as a reference point.
MOLECULE	MEASURED NUMBER
NC(=O)CC(NC(=O)Cc1cccc2ccccc12)c1ccc(NCCN2CCCCC2)c([N+](=O)[O-])c1 (stereo not drawn)	7.38
Cc1ccc(S(=O)(=O)Oc2ccc(C(c3c(C)[nH][nH]c3=O)c3c(C)[nH][nH]c3=O)cc2)cc1	-1.83
COc1ccc(-c2cc(CCCC(=O)NCCc3ccc(OC)cc3OC)no2)cc1	5.37
Cc1cccc(Oc2ccccc2NC(=O)CN2C(=O)NC3(CCCC3)C2=O)c1	-6.76
O=C1CC(c2ccccc2)Cc2nc(N3CCc4ccccc4C3)ncc21 (stereo not drawn)	-2.75

Give hERG current change (%, negative = inhibition) at 10uM for each listed item.
1. COCCCC1CCN(Cc2nc(Cc3ccccc3Cl)no2)CC1
2. O=S(=O)(Nc1ccc(N2CCOCC2)cc1)c1ccc(F)cc1
3. CCn1nnnc1SCC(=O)Nc1cccc(NC(C)=O)c1
4. CC(=O)Nc1ccc(S(=O)(=O)Nc2cc3c(cc2C(C)=O)OCO3)cc1

Output:
[5.07, 4.3, -1.06, 20.7]

###

STUDY TARGET: human ether-à-go-go-related gene (hERG) potassium channel (human);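 also: peak tail current of the secondary pulse compared with the same well before compound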
TEST METHOD NOTES: primary screen, population patch clamp on CHO cells stably expressing hERG; higher = less effect of the substance
Screen size: about 310,000 compounds; about 14,000 (4.5%) showed an effect of 50% or more. The effect is printed as a negative number. The entries come from a sample that favours strong results as a whole.
Hi there, I'd appreciate the recorded hERG current change (%, negative = inhibition) at 10uM for every entry that follows.
Answers are plain numbers, in %.

Use the examples below as a reference point.
COMPOUND	MEASURED NUMBER
O=C(Nc1ccc(Cl)cn1)c1ccc(Br)c(S(=O)(=O)N2CCCCC2)c1	18.7
CCCCn1cnc2c(c1=O)c1nc3ccccc3nc1n2Cc1ccc2c(c1)OCO2	24.1

Give hERG current change (%, negative = inhibition) at 10uM for each listed item.
1. O=C(N/N=C/c1ccc(-c2cccc([N+](=O)[O-])c2)o1)c1ccc([N+](=O)[O-])cc1
2. CCOc1ccc(CNC(=O)C(C)n2nc(C)c3c(C)n(-c4ccccc4)nc3c2=O)cc1 (stereo not drawn)
3. Cc1ccc(-n2nc3c(=O)n(C(C)C(=O)NCc4ccc(Cl)cc4)nc(C)c3c2C)cc1 (stereo not drawn)
4. Cc1ccc(C(=O)N/C(=C/c2ccc(-c3cccc([N+](=O)[O-])c3)o2)C(=O)NC(C)C)cc1

Output:
-40
-16.1
-63.5
-30.8

Give hERG current change (%, negative = inhibition) at 10uM for each listed item.
1. CCCCn1c(N)c(N(CC(C)C)C(=O)c2cc(C)oc2C)c(=O)[nH]c1=O
2. CCCC(=O)Nc1nc2nc(C)cc(=O)n2[nH]1

Output:
1: 8.94; 2: 1.2

Input: # value lookup — system human ether-à-go-go-related gene (hERG) potassium channel (human), readout hERG current change (%, negative = inhibition) at 10uM, item O=C(Cc1csc(NC(=O)c2ccc(F)cc2)n1)NO;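 also: peak tail current of the secondary pulse compared with the same well before compound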
Output: -3.56

###

STUDY TARGET: human ether-à-go-go-related gene (hERG) potassium channel (human, UniProt Q12809);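 also: peak tail current of the secondary pulse compared with the same well before compound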
TEST METHOD NOTES: primary screen, population patch clamp on CHO cells stably expressing hERG; higher = less effect of the substance
Among all 310,000 compounds or so, about 14,000 (4.5%) showed an effect of 50% or more. The effect is printed as a negative number. Shown is part of a subset that was picked to be rich in strong results.
Hi there, I'd appreciate the recorded hERG current change (%, negative = inhibition) at 10uM for every entry that follows.
Numbers only, in %.

Give hERG current change (%, negative = inhibition) at 10uM for each listed item.
1. COc1ccc(CN2CCN(CC3CC3)CC2CCO)cc1C (stereo not drawn)
2. OCCC1CN(Cc2cc3ccccc3o2)CCN1Cc1ccc(F)cc1 (stereo not drawn)
3. COc1ccc(-c2csc(N(CCCN3CCOCC3)C(=O)c3ccco3)n2)cc1.Cl
4. COc1cc(OC)c(NC2=NCCCCC2)cc1Cl
5. Cn1nc(-c2ccccc2)c(C(=O)Nc2ccc(Cl)cc2)c1Cl
6. COc1cccc(C(=O)Nc2nnc(-c3ccccc3)s2)c1OC

Output:
1. -0.194
2. -11.8
3. -32.4
4. -0.664
5. -12.7
6. 4.52
